These data points were gathered from PubChem BioAssay (NCI).

Tested on: SK-MEL-2 melanoma
assay: NCI-60 one-dose screen, 48 h (100 = growth as untreated, 0 = no growth, -100 = all killed)
experimentalConditions: 10 µM unless noted
The panel holds about 83,000 compounds, 20% with a hit somewhere; the sample as a whole holds those more often.

molecule | growth (%)
O=S(=O)(NCCNc1nccc(-c2c(-c3cccc(F)c3)nc3occn23)n1)c1cccc2ccccc12 | 58.3
NS(=O)(=O)c1cccc(NC(=O)C(=O)C2C(=O)Nc3ccccc32)c1 (centres undefined) | 113
CCN1C(=O)N(CC)C2C1NN=c1s/c(=C3\C(=O)Nc4ccccc43)c(=O)n12 (centres undefined) | 37.6
COc1cc(/C=C2\C(=O)N(Cc3ccc(Cl)cc3)c3ccccc32)cc(OC)c1OC | 90.2
